Assay: Toxicity liver stage against HepG2, at 10uM
Assay type: cell-based
Parameters: test concentration 10 uM, cell line HepG2-A16-CD81EGFP
Conditions: human, HepG2-A16-CD81EGFP cells; read-out: INHIBITION
Property: cytotoxicity at 10 µM (%)
Give your result in % as a bare value.

For orientation, consider the following solved cases.
What value of cytotoxicity at 10 µM has been recorded for this entry: `CC(C)(O)CN1CCN(C(=O)COCC(F)(F)F)CC1` -12.9

Note, next up: Cn1ccnc1SCC(=O)NCCC1CCCO1 (configuration not stated) -2.49

Now the compound `CCOCc1nc2c(c(NCCNC(C)=O)n1)CCN(C(C)=O)CC2` 9.93

Others:
Look up cytotoxicity at 10 µM for this compound: `Fc1cccnc1Oc1cc(F)c(CN2CCCC2)c(F)c1` -7.32

Lookup Cc1ccc(C)n1-c1c(C(=O)NCC(C)Cn2cccn2)cnn1C (configuration not stated) 13.8

Please do the same for COCCN1CCN(C(=O)C(c2cccc(F)c2)N(C)C)CC1 (configuration not stated) as well. 9.63

Continue with `CNC(=O)CN(C)C(=O)c1cc(Cl)c(I)cc1OC` 13.8

----------
Measured cytotoxicity at 10 µM by item
Test: Toxicity liver stage against HepG2, at 10uM
Type: cell-based
Parameters: test concentration 10 uM, cell line HepG2-A16-CD81EGFP
Settings: human, HepG2-A16-CD81EGFP cells; read-out: INHIBITION
Enter your answer as a number in %; do not include the unit.

Examples with answers:
// returns reported cytotoxicity at 10 µM for input CC(C)N1CCC(CNC(=O)COc2ccc(F)cc2F)C1 (stereo not given) -2.17

Similarly, Cc1cc(CNC(=O)NC(C)(CO)C2CC2)c(C)s1 (stereo not given) ? 3.46

Next:
Return reported cytotoxicity at 10 µM; argument: `O=C(C1CCOCC1)N1CCO[C@H]2[C@@H](OCC3CC3)CC[C@@H]21` -6.22

Check `O=C(NCCNc1cnccn1)N1CCc2ccccc2C1` too. -2.73

Try this compound next: `CC(C)CCNC(=O)c1sccc1N(C)S(=O)(=O)c1ccccc1` 9.33

Same again, this time with CC(C)S(=O)(=O)C(C)C(=O)Nc1ccc2oc(C3CC3)nc2c1 (stereo not given) 1.77

And then CC1CN(C)c2ccccc2CN1CCn1cncn1 (stereo not given) , what is it? -12.7

Also check O=C(Nc1ccccc1)N1CCn2c(nnc2C2CCCN2)C1 (stereo not given) 2.91

Entry `COc1ccc(C)cc1NC(=O)Nc1cnc(N2CCCC2)nc1` please 6.62

Next up: `CCn1cc(NC(=O)CCc2ccc3c(c2)OCCCO3)cn1` -9.26

----------
# Lookup of reported cytotoxicity at 10 µM keyed by entry
Assay: Toxicity liver stage against HepG2, at 10uM
Format: cell-based
Parameters: test concentration 10 uM, cell line HepG2-A16-CD81EGFP
Conditions: human, HepG2-A16-CD81EGFP cells; read-out: INHIBITION
Give just the number in %; leave the unit off.

I am curious: what cytotoxicity at 10 µM value has been reported for `COc1cc(C)nc(N2CCN(C(=O)CCc3ccsc3)CC2)n1` ? 10

Also check `NC(=O)c1cn(CC2CC2)c(C2CC2)n1` 0.524

Next compound up: COc1cccc(CN2CC(O)CN(C(=O)C3CCC3)CC2=O)c1OC (stereo not given) 4.43

Let us now turn to `COc1cc(N2CC[C@@H]3O[C@H](C(=O)N(C)C)C[C@@H]32)ncn1` 1.14

Note, next up: CCC(CNC(=O)Cc1c(C)noc1C)N1CCCC1 (stereo not given) -46.3

New cases:
Would you kindly share the measured cytotoxicity at 10 µM for Fc1cccc(-c2nnn3c2COC(CNc2ncccn2)C3)c1 (stereo not given) ? -65.3

Next entry: O=C(NCC(c1ccccc1)N1CCOCC1)Nc1cn[nH]c1 (stereo not given) -15.8

Follow-up entry: COc1ccc(CNCc2nnc3n2CC(C(F)(F)F)CC3)cc1 (stereo not given) 3.27

Try this compound too: `Cc1nc(C2(NCC(=O)NC(=O)Nc3ccccc3)CCCCC2)no1` 30.4

What do we get for `O=C(NCCS(=O)(=O)N1CCN(c2ncccn2)CC1)c1ccccc1` ? -3.28

----------
Recorded cytotoxicity at 10 µM, one value per entry.
Assay: Toxicity liver stage against HepG2, at 10uM
Format: cell-based
Parameters: test concentration 10 uM, cell line HepG2-A16-CD81EGFP
Settings: human, HepG2-A16-CD81EGFP cells; read-out: INHIBITION
Report only the number, with the unit % understood.

Below are worked cases with known answers.
Data request, read-out cytotoxicity at 10 µM, for `Cc1nc(C2CCN(CC(=O)NC3CC3)CC2)cc(N2CCOCC2)n1` 2.39

Same question, Cc1nc(CN2CCC(N(C)Cc3noc(C(C)C)n3)C2)oc1C (configuration not stated) this time 4.63

Continue with `c1ccc(OCc2nnn3c2CN(c2ncccn2)CCC3)nc1` 1.89

***
Using the record for `O=C(c1ccc2c(c1)[nH]c(=O)n2C1CCCC1)N1CCCSCC1` , report its cytotoxicity at 10 µM. -41.2

Another compound to look at: `c1ccc(CSc2nnc(C3CC3)s2)nc1` 0.873

Consider next the compound c1ccc(CN2CCC3(CC2)CC(Nc2nccs2)CO3)nc1 (configuration not stated) in the same way. -78.2

Follow-up item: `COc1ccc(CNC(=O)NCc2cc(C)oc2C)cc1` -6

What would you report for `CCCSc1nc(N)c(NC(=O)c2ccc(OC)c(OC)c2)c(=O)[nH]1` ? -8.7

Now try `CC(C)N(Cc1ccccn1)C(=O)CN(C)C(=O)c1cccs1` . 2.31

Now consider `Cc1cccc(C(=O)N2CCc3c(CN(C)C)nn(C)c3C2)n1` and answer again. 3.61

----------
Test: Toxicity liver stage against HepG2, at 10uM
Format: cell-based
Set-up: test concentration 10 uM, cell line HepG2-A16-CD81EGFP
Settings: human, HepG2-A16-CD81EGFP cells; read-out: INHIBITION
Property: cytotoxicity at 10 µM (%)
Enter your answer as a number in %; do not include the unit.

Solved entries (count: 10):
Can you share its cytotoxicity at 10 µM? I mean this compound: `Nc1nc(CNc2ncnc3c2CCN(Cc2ccoc2)CC3)cs1` 1.63

Then COc1ccc(CCNC(=O)C(C)Nc2ccc(C)c(C)c2)cc1 (stereo unspecified) ? 2.7

Could you do the same for `CC(C)c1ccc(O)c(C(=O)NCc2cc[nH]n2)c1` , please? -1.49

Moving on to Brc1ccc2[nH]c3c(c2c1)CCCC3c1nn[nH]n1 (stereo unspecified) 4.49

Then CC(C)(C)c1ccc(=O)n(CN2CCCC(C(F)(F)F)C2)n1 (stereo unspecified) ? -2.19

Next: `O=C(c1cc[nH]n1)N1CCC(c2nccn2Cc2ccncc2)CC1` 0.216

Item: O=C1CC(c2ccc3c(c2)OCO3)c2c(n3ccsc3nc2=O)N1 (stereo unspecified) 8.38

Again, but for Cc1nc(CCCNC(=O)C2CC(=O)N(C3CCCC3)C2)sc1C (stereo unspecified) 3.01

Please give the result for `COc1ccccc1-n1c(O)cc(C)c(C#N)c1=O` too. 2.74

And for Cc1ccc(C(CNCc2c[nH]nc2C)N(C)C)cc1 (stereo unspecified) ? 8.42

---
Look up cytotoxicity at 10 µM: `Cc1cccnc1NC(=O)C1(n2cnnn2)CCCCC1` -2.43

Now the compound Cn1nc(C2CCCN(Cc3ccc(F)cc3F)C2)c2nccnc21 (stereo unspecified) -8.46

Proceed to `O=S(=O)(c1ccccc1N1CC(n2cccn2)C1)C(F)(F)F` 6.68

----------
Experiment: Toxicity liver stage against HepG2, at 10uM
Format: cell-based
Set-up: test concentration 10 uM, cell line HepG2-A16-CD81EGFP
Conditions: human, HepG2-A16-CD81EGFP cells; read-out: INHIBITION
Property: cytotoxicity at 10 µM (%)
Write the value in % as a bare number.

Take a look at these entries with their results.
Which cytotoxicity at 10 µM value is on record for Cc1cnc(CN(C)C2CCCN(c3cccnn3)C2)cn1 (stereo unspecified) ? 10.4

Item: `Cc1cn2c(=O)c(-c3ccnc(N[C@@H]4CCOC4)n3)cnc2s1` -9.19

Queued: Cc1noc(C2CCC3(CCN(C(=O)c4cc(C5CC5)on4)CC3)O2)n1 (stereo unspecified) 3.1

Moving on to the next compound: Cc1cc(CNC(=O)NC(C)c2ccccc2)no1 (stereo unspecified) 10.4

Same thing, different compound: COc1cccc(NC(=O)CC2Cn3ncnc3NC2=O)c1 (stereo unspecified) 4.4

More entries:
Bench note: what cytotoxicity at 10 µM did CC(c1nc(C(C)(C)C)no1)N1CCC(N2CCCC2)CC1 (stereo unspecified) show? 3.63

Ok, now `O[C@]12CCNC[C@H]1CN(c1ccnc3ccccc13)CC2` 8.33

Input `CC(C)(CO)Nc1ccc(-c2nc(-c3ccccc3F)no2)cn1` 9.62

// same read-out, input: `CCOC[C@@]12CCC[C@@H]1CN(C(=O)c1ccc(OC)cc1)C2` -108

// next record COc1ccc(CNC(Cc2ccsc2)c2ccc(C)cn2)cc1OC (stereo unspecified) -4.88

Then what about the compound CCn1cc(CN2CCCC2c2nc(C(C)C)no2)cc1C#N (stereo unspecified) ? 1.44
